# Test system: SK-LMS-1
# PROTOCOL_DETAILS: relative viability vs DMSO control (72 h) (fraction); higher = more viable cells
# ASSAY_CONTEXT: 0.00457 µM
The following molecules are listed with their measured relative viability values.

MOLECULE	relative viability
CC1(C)CNc2cc(NC(=O)c3cccnc3NCc3ccncc3)ccc21 [Motesanib]	1.02
Cc1nc(-c2cn3c(n2)-c2ccc(-c4cnn(C(C)(C)C(N)=O)c4)cc2OCC3)n(C(C)C)n1 [Taselisib]	0.992
COc1cc2nccc(Oc3ccc(NC(=O)Nc4cc(C)on4)c(Cl)c3)c2cc1OC [Tivozanib]	1.05
CC(C)(C)c1cc(NC(=O)Nc2ccc(-c3cn4c(n3)sc3cc(OCCN5CCOCC5)ccc34)cc2)no1 [Quizartinib]	1.03
COc1c(OCCCN2CCOCC2)ccc2c1N=C(NC(=O)c1cnc(N)nc1)N1CCN=C21 [Copanlisib]	0.814
CC(C)N1CCN(Cc2cnc(-c3cc(-c4cccc5[nH]ccc45)cc4[nH]ncc34)o2)CC1 [Nemiralisib]	1.04
CN1CCC(COc2cnc(-c3cccc(Cn4nc(-c5cccc(C#N)c5)ccc4=O)c3)nc2)CC1 [Tepotinib]	1.05
CO[C@H]1C[C@@H]2CC[C@@H](C)[C@@](O)(O2)C(=O)C(=O)N2CCCC[C@H]2C(=O)O[C@H]([C@H](C)C[C@@H]2CC[C@@H](OP(C)(C)=O)[C@H](OC)C2)CC(=O)[C@H](C)/C=C(\C)[C@@H](O)[C@@H](OC)C(=O)[C@H](C)C[C@H](C)/C=C/C=C/C=C/1C [Ridaforolimus]	0.67
CC(=O)Nc1cccc(-n2c(=O)n(C3CC3)c(=O)c3c(Nc4ccc(I)cc4F)n(C)c(=O)c(C)c32)c1 [Trametinib]	0.905

* * *

# Test system: HT1080
# PROTOCOL_DETAILS: relative viability vs DMSO control (72 h) (fraction); higher = more viable cells
# ASSAY_CONTEXT: 0.01372 µM
The following molecules are listed with their measured relative viability values.
QUANTITY: relative viability

                                   molecule  endpoint_result
0  Cc1ccc(F)c(NC(=O)Nc2ccc(-c3cccc4[nH]nc(N)c34)cc2)c1             1.06
1  CC(C)NC(=O)C1CCC(n2c(NC(=O)c3ccc(F)cc3)nc3ccc(CN4CCC(C(C)(C)O)CC4)cc32)CC1 (stereo unspecified)             1.07
2  CC(C)N1CCN(Cc2cnc(-c3cc(-c4cccc5[nH]ccc45)cc4[nH]ncc34)o2)CC1             1.01
3  CN1CCN(c2ccc3nc(-c4c(N)c5c(F)cccc5[nH]c4=O)[nH]c3c2)CC1             1.09
4  CC[C@H](Nc1ncnc2[nH]cnc12)c1nc2cccc(F)c2c(=O)n1-c1ccccc1             1.09
5  CCCS(=O)(=O)Nc1ccc(F)c(C(=O)c2c[nH]c3ncc(-c4ccc(Cl)cc4)cc23)c1F             1.08

* * *

# System: KHOS-240S
# PROTOCOL_DETAILS: relative viability vs DMSO control (72 h) (fraction); higher = more viable cells
# ASSAY_CONTEXT: 1.111 µM
Structures can show the parent of a compound that is named as a salt.
The following molecules are listed with their measured relative viability values.

MOLECULE	ASSAY_TARGET	relative viability
CC(C)NC(=O)C1CCC(n2c(NC(=O)c3ccc(F)cc3)nc3ccc(CN4CCC(C(C)(C)O)CC4)cc32)CC1 (configuration not stated)	KHOS-240S	0.713
Cc1ccc(F)c(NC(=O)Nc2ccc(-c3cccc4[nH]nc(N)c34)cc2)c1	KHOS-240S	1.06
Cn1cc(-c2cc3c(N4CCN(c5ncc([C@@](C)(N)c6ccc(F)cc6)cn5)CC4)ncnn3c2)cn1	KHOS-240S	0.84
CN1CCN(c2ccc3nc(-c4c(N)c5c(F)cccc5[nH]c4=O)[nH]c3c2)CC1	KHOS-240S	0.548
COc1cccc2c1C(=O)c1c(O)c3c(c(O)c1C2=O)C[C@@](O)(C(=O)CO)C[C@@H]3O[C@H]1C[C@H](N)[C@H](O)[C@H](C)O1 [Doxorubicin Hydrochloride]	KHOS-240S	0.109
Nc1cc(C(F)(F)F)c(-c2cc(N3CCOCC3)nc(N3CCOCC3)n2)cn1	KHOS-240S	0.708
CC(=O)Nc1cccc(-n2c(=O)n(C3CC3)c(=O)c3c(Nc4ccc(I)cc4F)n(C)c(=O)c(C)c32)c1	KHOS-240S	0.731
